target: Adenosine kinase (Homo sapiens, UniProt P55263); test: Inhibition of recombinant human adenosine kinase
Sequence (P55263 whole entry): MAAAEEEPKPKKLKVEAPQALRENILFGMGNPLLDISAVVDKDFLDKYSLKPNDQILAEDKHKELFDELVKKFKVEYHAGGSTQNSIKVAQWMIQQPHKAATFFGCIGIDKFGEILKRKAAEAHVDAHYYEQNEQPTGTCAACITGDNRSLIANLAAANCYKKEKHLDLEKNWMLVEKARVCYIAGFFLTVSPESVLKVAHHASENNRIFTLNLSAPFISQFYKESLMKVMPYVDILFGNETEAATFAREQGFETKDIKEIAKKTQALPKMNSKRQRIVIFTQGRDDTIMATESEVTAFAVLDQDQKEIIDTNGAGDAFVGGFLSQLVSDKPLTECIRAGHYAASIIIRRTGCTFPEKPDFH
pIC50: −log10 of the molar value.
pIC50 values, listed per item
value-type: pIC50

OC[C@H]1O[C@@H](n2cc(-c3ccccc3)c3c(Nc4ccccc4)ncnc32)C[C@@H]1O 6.52
COc1ccc(Nc2ncnc3c2c(-c2ccccc2)cn3[C@@H]2O[C@H](C)[C@@H](O)[C@H]2O)cc1 8.22
OC[C@H]1O[C@@H](n2ccc3c(Nc4ccccc4)ncnc32)[C@H](O)[C@@H]1O 5.90
C[C@H]1O[C@@H](n2cc(-c3ccccc3)c3c(Nc4ccc(O)cc4)ncnc32)[C@H](O)[C@@H]1O 9.00
C[C@H]1O[C@@H](n2cc(-c3ccccc3)c3c(NCc4ccccc4)ncnc32)[C@H](O)[C@@H]1O 7.52
C[C@H]1O[C@@H](n2cc(I)c3c(NCc4ccccc4)ncnc32)[C@H](O)[C@@H]1O 6.10
C[C@H]1O[C@@H](n2cc(-c3ccccc3)c3c(Nc4ccc(C#N)cc4)ncnc32)[C@H](O)[C@@H]1O 7.85
